Values were extracted from the supplement of paper PMC9112550.

Reported shrunken log2 fold change by item:
tested on: Escherichia coli TOP10; assay: shrunken log2 fold change of peptide-encoding DNA abundance (4.5 h post-induction vs induction); higher = less antimicrobial activity (less host growth inhibition); conditions: time post-induction: 4.5 h; library: site-saturation at positions 5, 18, 19, 20;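 note: peptides expressed intracellularly from a pBAD plasmid library in pooled LB shake-flask culture, induced with 0.3% L-arabinose, DNA abundance read by NGS, three biological replicates, DESeq2 with apeglm shrinkage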

{"chain_sequence": "RRIRNRPPRLPRPRPRPMYMPRP", "target_desc": "Escherichia coli TOP10", "value_measured": -0.05}
{"chain_sequence": "RRIRERPPRLPRPRPRPTIHPRP", "target_desc": "Escherichia coli TOP10", "value_measured": -0.324}
{"chain_sequence": "RRIRCRPPRLPRPRPRPIQIPRP", "target_desc": "Escherichia coli TOP10", "value_measured": -0.0558}
{"chain_sequence": "RRIRMRPPRLPRPRPRPGGCPRP", "target_desc": "Escherichia coli TOP10", "value_measured": 0.888}
{"chain_sequence": "RRIRARPPRLPRPRPRPECFPRP", "target_desc": "Escherichia coli TOP10", "value_measured": 0.938}

(Q) Tell me the measured shrunken log2 fold change of "RRIRDRPPRLPRPRPRPKGPPRP" , please.
(A) -0.0184

(Q) Tell me the measured shrunken log2 fold change of "RRIRSRPPRLPRPRPRPCTYPRP" , please.
(A) -0.454

(Q) Tell me the measured shrunken log2 fold change of "RRIRPRPPRLPRPRPRPFMCPRP" , please.
(A) -0.164
